B1: library; a variant is named by its letters at N, in order (parent)
chain: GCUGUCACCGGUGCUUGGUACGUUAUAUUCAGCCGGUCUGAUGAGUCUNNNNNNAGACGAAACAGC

- Variants of: B1
- experimental-protocol: normalized RNA/DNA level without ligand (relative to sTRSVctl = 100) (log10 (% of sTRSVctl)); HEK293T overexpressing SLC46A1; higher = less ribozyme self-cleavage, higher mRNA level
- experimental-setup: without (6R,S)-folinic acid; ligand present: no
outcome-measure: normalized RNA/DNA level without ligand (log10)

1. GAAGGC = 1.95
2. GAUGCA = 2.01
3. GGUUUA = 2.01

The measurements presented in this section are drawn from the supplement of paper PMC6757056.
